Target: T1, cyno-CD200R1 ECD (cynomolgus monkey)
T1 construct: also called cynomolgus monkey CD200R1; MfCD200R1 (recombinant)
T1 chain: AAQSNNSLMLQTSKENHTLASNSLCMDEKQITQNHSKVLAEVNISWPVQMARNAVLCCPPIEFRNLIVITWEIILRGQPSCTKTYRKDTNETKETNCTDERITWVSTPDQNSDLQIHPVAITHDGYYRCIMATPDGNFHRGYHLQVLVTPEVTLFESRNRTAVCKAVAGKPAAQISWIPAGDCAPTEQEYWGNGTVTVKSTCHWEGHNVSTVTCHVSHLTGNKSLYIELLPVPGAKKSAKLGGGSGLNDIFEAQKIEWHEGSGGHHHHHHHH
Experiment: SPR Biacore 8K 37C; antibody on Protein A chip, CD200R1 analyte;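 note: sensorgrams corrected by subtracting reference and buffer signals, then analysed with Biacore 8K Evaluation Software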
outcome.measure: kon

binder="h10F6.V1 (antibody, IgG1, V domains shown, differs by 3 residues in the heavy chain CDRs and 1 in the light chain CDRs; also called surrogate antibody) VH: EVQLQESGPGLVKPSETLSLTCTVSGFSLTNYRVSWVRQPPGKGLEWLGVMYAGGGTNYNSVFKSRLTISKDNSKNQVSLKLSSVTAADTAVYYCARERPLTGVMDNWGQGTLVTVSS VL: DIVLTQSPDSLAVSLGERATINCRASESVDYSGNSFMHWFQQKPGQPPKLLIYRASNLESGIPDRFSGSGSRTDFTLTISSLQAEDVAVYYCHQSNWDPPTFGGGTKVEIKR" outcome_measure=kon reported_measurement="436000 M⁻¹ s⁻¹"
binder="h10F6.V3 (antibody, IgG1, V domains shown, IgG1 variant of h10F6) VH: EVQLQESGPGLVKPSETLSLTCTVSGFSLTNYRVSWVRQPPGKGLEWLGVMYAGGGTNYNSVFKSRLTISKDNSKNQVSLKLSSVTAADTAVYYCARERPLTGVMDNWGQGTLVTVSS VL: DIVLTQSPDSLAVSLGERATINCRASESVDYSGNSFMHWFQQKPGQPPKLLIYRASNLESGIPDRFSGSGSRTDFTLTISSLQAEDVAVYYCHQSNEDPPTFGGGTKVEIKR" outcome_measure=kon reported_measurement="322000 M⁻¹ s⁻¹"
binder="h10F6.V4 (antibody, IgG1, V domains shown, IgG1 variant of h10F6) VH: EVQLQESGPGLVKPSETLSLTCTVSGFSLTNYWVSWVRQPPGKGLEWLGTMWAGGGTNYNSVFKSRLTISKDNSKNQVSLKLSSVTAADTAVYYCARERPLTGPMDYWGQGTLVTVSS VL: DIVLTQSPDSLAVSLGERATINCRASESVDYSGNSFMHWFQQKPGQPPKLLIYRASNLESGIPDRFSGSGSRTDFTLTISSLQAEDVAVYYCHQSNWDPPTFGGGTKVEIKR" outcome_measure=kon reported_measurement="193000 M⁻¹ s⁻¹"
binder="h10F6.V2 (antibody, IgG1, V domains shown, IgG1 variant of h10F6) VH: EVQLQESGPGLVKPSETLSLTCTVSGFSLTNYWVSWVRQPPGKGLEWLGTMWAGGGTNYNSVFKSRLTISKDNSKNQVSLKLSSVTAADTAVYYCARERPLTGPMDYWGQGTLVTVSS VL: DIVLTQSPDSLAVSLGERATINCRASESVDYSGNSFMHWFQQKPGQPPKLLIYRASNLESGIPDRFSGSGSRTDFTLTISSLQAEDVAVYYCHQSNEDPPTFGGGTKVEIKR" outcome_measure=kon reported_measurement="216000 M⁻¹ s⁻¹"
